biological target: UniProt:P19327
Sequence (P19327 whole entry): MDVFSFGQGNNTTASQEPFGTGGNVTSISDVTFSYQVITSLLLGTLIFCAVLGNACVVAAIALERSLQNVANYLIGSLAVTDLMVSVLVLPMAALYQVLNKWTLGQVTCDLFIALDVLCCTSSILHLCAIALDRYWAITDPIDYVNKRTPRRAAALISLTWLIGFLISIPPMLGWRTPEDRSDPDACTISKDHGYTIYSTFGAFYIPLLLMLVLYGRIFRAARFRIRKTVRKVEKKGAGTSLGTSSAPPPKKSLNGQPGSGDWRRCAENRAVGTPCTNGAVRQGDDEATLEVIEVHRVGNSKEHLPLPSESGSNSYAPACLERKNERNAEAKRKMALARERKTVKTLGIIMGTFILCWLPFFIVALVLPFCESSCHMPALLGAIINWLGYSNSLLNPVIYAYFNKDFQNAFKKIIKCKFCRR
pIC50: −log10 of the molar value.
endpoint: pIC50

1. COc1ccccc1C1CCN(CCC(C(=O)N2CCCCCC2)c2ccccc2)CC1 (single isomer, unassigned; (+)) [(+)-enantiomer]	9.70

----------
Below, each entry is listed with its recorded pIC50.
test system: α1 sites; experiment: affinity for α1 sites (procedure of Marrow et al.); type: binding
pIC50: −log10 of the molar value.
endpoint: pIC50

1. COc1ccccc1C1CCN(CCC(C(=O)N2CCCCCC2)c2ccccc2)CC1 (single isomer, unassigned; (+)) [(+)-enantiomer]	6.60
2. COc1ccccc1C1CCN(CCC(C(=O)N2CCCCCC2)c2ccccc2)CC1 (centres unmarked)	5.97
